experimental.details: yeast display, Sf9 membrane polyspecificity reagent, FACS + sequencing; frameworks hold sequencing errors
measured.quantity: polyreactivity (PSR sort gate)

Completed entries (count: 5):
Q: Look up polyreactivity (PSR sort gate): QVQLVESGGGLVQAGGSLRLSCAASGSTLPTNAMGWYRQAPGKEREFVAAISDNGGSTYYADSVKGRFTISRDNAKNTVYLQMNSLKPEDTAVYYCAADNFAPEFYYWGQGTQVTVSS
Ans: low polyreactivity

Q: Param item: QVQLVESGGGLVQAGGSLRLSCAASGRIFIYNAMGWYRQAPGKERELVAAISYSGGRTYYADSVKGRFTISRDNPKNTVYLQMNRLKPEDPAVYYCNAAYRISSAPGYFYFPYNYDYWGQGTQVTVSS
Ans: high polyreactivity

Q: Param item: QVQLVESGGGLVQAGGSLRLSCAASGSTFSKNAMGWYRQAPGKERELVAAINWSTGSTHYADSVKGRFTISRDNAKNTVYLQMNRLKPEDTAVYYCAAEGPKQYDYWGQGTQVTVSS
Ans: low polyreactivity

Q: Param item: QVQLQDSGGGLVQAGGSLRQSYAASGYIFPSLAMGWYRQAPGKEREFVAAIGRGSTNNYADSVKGRFTISRDNAKNTAYQQMNSLKPEDTAVYYCAAAASPLTRHLYWGQGTQVTVSS
Ans: low polyreactivity

Q: Param item: QVQLEESGGGLVQAGGSLRLSCAASGRTFSPNTMGWYRQAPGKEREFVAAITASGDSTYYADSVKGRFTISRDNAKYSVYLQMNRLKPEDTAVYYCATDSNWYWGFNYWGQGTQVTVSS
Ans: low polyreactivity

More entries:
Q: Look up polyreactivity (PSR sort gate): QVQLVESGGGLVHAGGSLPLSCAASGRIFPGYAMRWYRQAPGKEREFVAAIRGTGTSTYYADSVKGRFTISRDNAKNTVYLQMNSLKPEDTAVYYCAASAGYAYNYWGQGTQVTVSS
Ans: low polyreactivity

###

experimental.details: yeast display, Sf9 membrane polyspecificity reagent, FACS + sequencing; frameworks hold sequencing errors
measured.quantity: polyreactivity (PSR sort gate)

Completed entries (count: 8):
Q: Look up polyreactivity (PSR sort gate): QVQLVESGGGLVQAGGSLRLSCAASGRIFTHNTMGWYRQAPGKERELVAAISSSGGSTYYADSVKGRFTISRDNAKNTVYLQMNSLKPDDTAVYYCNTLIKGRWIVVGYGYPGYDYWGQGTQVTVSS
Ans: high polyreactivity

Q: Param item: QVQLVESGGGLVQAGGSLRLSCAASGLTFANYVMGWYRQAPGKERELVAAISGGGGSTHYADSVKGRFTISRDNAKNTVYLQMNSLKPEDTAVYYCNADKYSVYGEHPYDYWGQGTQVTVSS
Ans: low polyreactivity

Q: Param item: QVQLEESGGGLVQAGGSLRLSCAASGITFRYYAMGWYRQAPGKEWELVAAITRSGSSTFYADSVKGRFTISRDNAKNTVYLQMNSLKPEDSAVYYCAAESVRAVFPDRYKYWGQGTQVTVSS
Ans: high polyreactivity

Q: Param item: QVQLVESCGGLVQAGGSLRLSCAASGFICNGYTMGWSRQAPWKERELVAAISGSGGRTYYADSVKGRFTISRDNAKKTVYLQMNSLKPEDTAVYYCAASNWHSRGSGEYYWGQGTQVTVSS
Ans: high polyreactivity

Q: Param item: QVQLVESGGGLVQAGGSLRLSCAASGITFYVNAMGWYRKAPGKERELVAGITLSGDSTYYADSVKGRFTISRDNAKNTVYLQMNSLKPEDTAVYYCAVEGGLWWPYTYYYWGQGTQVTVSS
Ans: high polyreactivity

Q: Param item: QVQLVESGGGLVQAGGSLRLSCAASGIIFGRYAMGWYRQAPGKERELVAVISRSGGSTYYADSVKGRFTISRDYAKNSVYLQMNSLKPEDTAVYYCAARYTPTYNAGLDYWGQGSQVTVSS
Ans: high polyreactivity

Q: Param item: QVQLVESGGGLVQAGGSLRLSCAASGGLFIGYAMGWYRQAPGKERELVAAISYSGGSTYYADSVKGRFTISRDNAKNTVYLQMNSLKPEDTAVYYCAAQVDRKYRWFNSWGQGTQVTVSS
Ans: high polyreactivity

Q: Param item: QDQLVESGGGLVQAGGSLSLSCAASGSIIPNYAMGWYRQAPGKERELVAAISSSGGRTYYADSVKGRFTISRDNAKNTVYLQMNCLKPEDTAVYYCAADTYTSAQHEKYDYWGQGTQVTVSS
Ans: low polyreactivity

Next item in the queue.
Q: Look up polyreactivity (PSR sort gate): QVHLVESGGGLVQAGGSLRLSCAASGRTFVPYVMGWYRQAPGKERELVATINWSGGSTYYADSVKGLFTISRDNAKNTVYLQMNSLKPEDTAVYYCAARYYSDWFYYLFRYDYLGQGTQVTVSS
Ans: low polyreactivity

Recorded values, source the nanobody polyreactivity screen of Harvey et al. (2022).
